Target: calcium calmodulin dependent protein kinase
Experiment: Calcium Calmodulin Dependent Protein Kinase Assay (CAM)
Conditions: Table 1
READOUT: IC50 (µM)

COMPOUND	OBSERVED_MEASUREMENT
CC(=O)NC[C@H]1CCn2cc(c3ccccc32)C2=C(C(=O)NC2=O)c2cn(c3ccccc23)CCO1 [Example 19r]	2.2

A. CN(C)CC1CCn2cc(c3ccccc32)C2=C(C(=O)NC2=O)c2cn(c3ccccc23)CCCO1 (centres unmarked)
B. NCC1CCCn2cc(c3ccccc32)C2=C(C(=O)NC2=O)c2cn(c3ccccc23)CC1 (centres unmarked) [Example 32]
C. O=C1NC(=O)C2=C1c1cn(c3ccccc13)CCCC(NCc1ccccc1)CCCn1cc2c2ccccc21
D. O=C1NC(=O)C2=C1c1cn(c3ccccc13)CCCC(Cn1ccnc1)CCn1cc2c2ccccc21 (centres unmarked)
E. O=C1NC(=O)C2=C1c1cn(c3ccccc13)CCO[C@@H](CN1CCCC1)CCn1cc2c2ccccc21 [Example 20r]
**Query** Highest IC50 first, then in falling order down to the smallest. State the ranking by listing the labels in the requested order.
**Result** C, A, E, D, B
(C: 70 µM, A: 20 µM, E: 7.3 µM, D: 3 µM, B: 0.9 µM)

Where these numbers come from: patent US5696108A
